- Tested on: 596521-263-R-J1-PDC complex spheroid growth;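 note: spheroids exposed to compounds for 7 days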
- ASSAY OVERVIEW: Anticancer human tumor 596521-263-R-J1-PDC patient-derived soft tissue sarcoma cell line growth inhibition [Asc]
- ASSAY SETUP: second compound 0.949 µM; first compound 0.00316 µM; active compounds read low
RESULT TYPE: viability, T/C (%)
Enter your answer as a number in %; do not include the unit.

The following molecules have reported results that may help.
{"columns": ["MOLECULE", "viability, T/C / %"],
 "data": [
  ["Cn1ncnc1[C@H]1c2n[nH]c(=O)c3cc(F)cc(c23)N[C@@H]1c1ccc(F)cc1 + CCN1C(C(=O)NC23CCC(C(=O)O)(CC2)CC3)C(c2cccc(Cl)c2F)C2(C(=O)Nc3cc(Cl)ccc32)C12CCCCC2", 91.2],
  ["NC1CCC(NC2CC2c2ccccc2)CC1 (stereo unspecified) + CCN1C(C(=O)NC23CCC(C(=O)O)(CC2)CC3)C(c2cccc(Cl)c2F)C2(C(=O)Nc3cc(Cl)ccc32)C12CCCCC2", 87.9],
  ["CCN1CCN(Cc2ccc(Nc3ncc(F)c(-c4cc(F)c5nc(C)n(C(C)C)c5c4)n3)nc2)CC1 + CCN1C(C(=O)NC23CCC(C(=O)O)(CC2)CC3)C(c2cccc(Cl)c2F)C2(C(=O)Nc3cc(Cl)ccc32)C12CCCCC2", 103],
  ["CNC(C)C(=O)NC1CN(S(=O)(=O)c2cccc(S(=O)(=O)N3CCC4CCC(C(=O)NC(c5ccccc5)c5ccccc5)N4C(=O)C(NC(=O)C(C)NC)C3)c2)CCC2CCC(C(=O)NC(c3ccccc3)c3ccccc3)N2C1=O (stereo unspecified) + CCN1C(C(=O)NC23CCC(C(=O)O)(CC2)CC3)C(c2cccc(Cl)c2F)C2(C(=O)Nc3cc(Cl)ccc32)C12CCCCC2", 99],
  ["COc1c(OCCCN2CCOCC2)ccc2c3n(c(=NC(=O)c4cnc(N)nc4)nc12)CCN3 + CCN1C(C(=O)NC23CCC(C(=O)O)(CC2)CC3)C(c2cccc(Cl)c2F)C2(C(=O)Nc3cc(Cl)ccc32)C12CCCCC2", 103]
]}

Next molecule, please.
Sample O=C(c1ccc(F)c(F)c1Nc1ccc(I)cc1F)N1CC(O)([C@@H]2CCCCN2)C1 + CCN1C(C(=O)NC23CCC(C(=O)O)(CC2)CC3)C(c2cccc(Cl)c2F)C2(C(=O)Nc3cc(Cl)ccc32)C12CCCCC2 , system: 596521-263-R-J1-PDC complex spheroid growth. Its viability, T/C is 97.8
